- measurement.description: physchem
experimental.readout: pKa
Give your answer as a number; write no unit.

# compound, pKa
records = [
    ("CCCCC/C=C\\C/C=C\\CCCCCCCCOCC(CN1CCC(C)(C)C1)OCCOCCO[C@H]1CC[C@@]2(C)C(=CC[C@H]3[C@@H]4CC[C@H]([C@H](C)CCCC(C)C)[C@@]4(C)CC[C@@H]32)C1 (some centres unmarked) [RV05]", 5.85),
]

Query compound follows.
Q. Item under review: CCCCC/C=C\C/C=C\CCCCCCCCOCC(CN1CCCC1C)OCCOCCOCCNC(=O)CCC(=O)O[C@H]1CC[C@@]2(C)C(=CC[C@H]3[C@@H]4CC[C@H]([C@H](C)CCCC(C)C)[C@@]4(C)CC[C@@H]32)C1 (some centres unmarked) [RV10] . Reported pKa?
A. 7.86
